- Test system: plasminogen activator (PA) activity in bovine retinal capillary endothelial cells
- assay notes: Inhibition of phorbol ester-induced activation of retinal capillary endothelial cells (plasminogen activator (PA) activity in cell lysates)
- Format: cell-based
- experimental setup: Bos taurus, activated with 50 nM 4-b PDBu, 48 hours, cell lysate, read-out: PA ED50

compound	assay system	readout relation	IC50 [nM]
N#CC1=C(N)Oc2ccc3cc(C(=O)O)ccc3c2C1c1cccc(C(=O)O)c1 (stereo not shown)	plasminogen activator (PA) activity in bovine retinal capillary endothelial cells	=	5000
N#CC1=C(N)Oc2ccc3ccccc3c2C1c1cccc(Cl)c1 (stereo not shown)	plasminogen activator (PA) activity in bovine retinal capillary endothelial cells	=	1000
N#CC1=C(N)Oc2ccc3ccccc3c2C1c1ccc([N+](=O)[O-])cc1 (stereo not shown)	plasminogen activator (PA) activity in bovine retinal capillary endothelial cells	>	20000
CCOC=NC1=C(C#N)C(c2cccc([N+](=O)[O-])c2)c2c(ccc3cc(C(=O)OCC)ccc23)O1 (stereo not shown)	plasminogen activator (PA) activity in bovine retinal capillary endothelial cells	=	8000
N#CC1=C(N)Oc2ccc3ccccc3c2C1c1cccc(Br)c1 (stereo not shown)	plasminogen activator (PA) activity in bovine retinal capillary endothelial cells	=	700
N#CC1=C(N)Oc2ccc3ccccc3c2C1c1ccccc1F (stereo not shown)	plasminogen activator (PA) activity in bovine retinal capillary endothelial cells	>	20000
N#CC1=C(N)Oc2ccc3ccccc3c2C1c1cccc(C(F)(F)F)c1 (stereo not shown)	plasminogen activator (PA) activity in bovine retinal capillary endothelial cells	=	50

----------
- Test system: cultured smooth cells derived from rabbit aorta
- assay notes: 3H-thymidine incorporation (DNA synthesis) in vascular smooth muscle cells stimulated with platelet-derived growth factor
- Type: cell-based
- experimental setup: Oryctolagus cuniculus; 20 ng/ml platelet-derived growth factor, 24 hours
property: log10(IC50) (log10 of the value in nM)

compound	log10(IC50)
N#CC1=C(N)Oc2ccc3ccccc3c2C1c1cccc(Cl)c1 (stereo not shown) [Example 6]	3.30
N#CC1=C(N)Oc2ccc3ccccc3c2C1c1cccc(F)c1 (stereo not shown) [Example 7]	3.30
N#CC1=C(N)Oc2ccc3ccccc3c2C1c1ccc(F)cc1 (stereo not shown) [Example 8]	3.18
N#CC1=C(N)Oc2ccc3ccccc3c2C1c1cccc(Br)c1 (stereo not shown) [Example 5]	3.26
N#CC1=C(N)Oc2ccc3ccccc3c2C1c1cccc([N+](=O)[O-])c1 (stereo not shown) [Example 2]	3.40
N#CC1=C(N)Oc2ccc3ccccc3c2C1c1ccc([N+](=O)[O-])cc1 (stereo not shown) [Example 3]	3.90
N#CC1=C(N)Oc2ccc3ccccc3c2C1c1cccc(C(F)(F)F)c1 (stereo not shown) [Example 10]	2.70
N#CC1=C(N)Oc2c(O)cc3ccccc3c2C1c1cccc([N+](=O)[O-])c1 (stereo not shown) [Example 12]	3.48
CCOC=NC1=C(C#N)C(c2cccc([N+](=O)[O-])c2)c2c(ccc3cc(C(=O)OCC)ccc23)O1 (stereo not shown) [Example 17]	3.78

----------
- Test system: plasminogen activator (PA) activity in bovine retinal capillary endothelial cells
- assay notes: Inhibition of phorbol ester-induced activation of retinal capillary endothelial cells (plasminogen activator (PA) activity in cell lysates)
- Format: cell-based
- experimental setup: Bos taurus, activated with 50 nM 4-b PDBu, 48 hours, cell lysate, read-out: PA ED50
Items are presented alongside their recorded IC50.

compound	IC50
N#CC1=C(N)Oc2ccc3ccccc3c2C1c1ccccc1[N+](=O)[O-] (centres unmarked)	> 20 µM
N#CC1=C(N)Oc2ccc3ccccc3c2C1c1ccc(F)cc1 (centres unmarked)	9 µM
N#CC1=C(N)Oc2ccc3cc(C(=O)O)ccc3c2C1c1cccc([N+](=O)[O-])c1 (centres unmarked)	> 20 µM
N#CC1=C(N)Oc2ccc3cc(C(=O)O)ccc3c2C1c1cccc(OC(F)(F)F)c1 (centres unmarked)	> 100 µM
N#CC1=C(N)Oc2c(O)cc3ccccc3c2C1c1cccc([N+](=O)[O-])c1 (centres unmarked)	0.65 µM
COc1cccc(C2C(C#N)=C(N)Oc3ccc4cc(C(=O)O)ccc4c32)c1 (centres unmarked)	> 100 µM
COc1ccc2ccc3c(c2c1)C(c1cccc([N+](=O)[O-])c1)C(C#N)=C(N)O3 (centres unmarked)	> 20 µM
N#CC1=C(N)Oc2ccc3ccccc3c2C1c1cccc([N+](=O)[O-])c1 (centres unmarked)	0.7 µM
